- tested-target: Cell-associated proTGFβ1 (hGARP-proTGFβ1 and hLRRC33-proTGFβ1)
- experiment-notes: BLI (Octet); Cell AVRG over ECM AVRG

| binder | G/D (fold bias) [fold] |
| --- | --- |
| Ab24 (antibody, V domains shown) VH: EVQLVESGGGLVQPGRSLRLSCAASGFTFSSFAMYWVRQAPGKGLEWVSYISPDASTIYYADSVKGRFTISRDNAKNSLYLQMNSLRAEDTAVYYCARGVLDYGDMLDPWGQGTLVTVSS VL: DIQMTQSPSSLSASVGDRVTITCQASQDITNYLNWYQQKPGKAPKLLIYDASNLETGVPSRFSGSGSGTDFTFTISSLQPEDIATYYCQQADNHPPWTFGGGTKVEIK | 2.42 |
| Ab32 (antibody, V domains shown) VH: EVQLVESGGGLVQPGGSLRLSCAASGFTFSSFSMNWVRQAPGKGLEWVSYISPSADTIYYADSVKGRFTISRDNAKNTLYLQMNSLRAEDTAVYYCARGVWDMGDMLDPWGQGTLVTVSS VL: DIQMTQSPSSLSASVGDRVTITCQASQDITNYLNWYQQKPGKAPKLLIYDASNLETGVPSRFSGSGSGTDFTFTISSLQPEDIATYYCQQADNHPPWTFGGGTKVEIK | 2.47 |
| Ab33 (antibody, V domains shown) VH: EVQLVESGGGLVQPGGSLRLSCAASGFTFSSFSMNWVRQAPGKGLEWVSYISPSADTIYYADSVKGRFTISRDNAKNTLYLQMNSLRAEDTAVYYCAHGVLDYGDMLDPWGQGTLVTVSS VL: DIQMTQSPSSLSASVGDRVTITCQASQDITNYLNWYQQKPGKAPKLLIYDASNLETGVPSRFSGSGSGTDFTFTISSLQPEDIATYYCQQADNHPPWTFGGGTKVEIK | 2.08 |
| Ab27 (antibody, V domains shown) VH: EVQLVESGGGLVQPGGSLRLSCAASGFTFSFYAMNWVRQAPGKGLEWVSYISPDASTIYYADSVKGRFTISRDNAKNSLYLQMNSLRAEDTAVYYCARGVLDYGDMLDPWGQGTLVTVSS VL: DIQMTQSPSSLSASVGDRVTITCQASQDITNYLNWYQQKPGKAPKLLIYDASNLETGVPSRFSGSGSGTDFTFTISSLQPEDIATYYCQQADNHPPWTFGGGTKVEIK | 1.74 |
| Ab25 (antibody, V domains shown) VH: EVQLVESGGGLVQPGGSLRLSCAASGFTFGSFSMDWVRQAPGKGLEWVSYISPDASTIYYADSVKGRFTISRDNAKNSLYLQMNSLRAEDTAVYYCARGVLDYGDMLDPWGQGTLVTVSS VL: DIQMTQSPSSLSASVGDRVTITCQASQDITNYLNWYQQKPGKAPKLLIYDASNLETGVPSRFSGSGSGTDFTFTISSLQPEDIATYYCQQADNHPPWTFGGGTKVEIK | 2.43 |
| Ab23 (antibody, V domains shown) VH: EVQLVESGGGLVQPGGSLRLSCAASGFTFSSFSMNWVRQAPGKGLEWVSYISPSADTIYYADSVKGRFTISRDNAKNTLYLQMNSLRAEDTAVYYCARGVLDYGDMLDPWGQGTLVTVSS VL: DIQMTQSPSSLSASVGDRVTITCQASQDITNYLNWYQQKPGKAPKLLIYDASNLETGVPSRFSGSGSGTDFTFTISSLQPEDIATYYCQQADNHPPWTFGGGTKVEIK | 2.03 |
| Ab31 (antibody, V domains shown) VH: EVQLVESGGGLVQPGGSLRLSCAASGFTFSSFSMDWVRQAPGKGLEWVSYISPDASTIYYADSVKGRFTISRDNAKNTLYLQMNSLRAEDTAVYYCARAVLDYGDMLDPWGQGTLVTVSS VL: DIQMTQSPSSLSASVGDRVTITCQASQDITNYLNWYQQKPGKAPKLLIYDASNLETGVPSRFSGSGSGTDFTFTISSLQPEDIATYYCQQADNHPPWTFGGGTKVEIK | 2.38 |
| Ab26 (antibody, V domains shown) VH: EVQLVESGGGLVQPGGSLRLSCAASGFTFSSFSMDWVRQAPGKGLEWVSYISPDASTIYYADSVKGRFTISRDNAKNTLYLQMNSLRAEDTAVYYCARGVLDYGDMLDPWGQGTLVTVSS VL: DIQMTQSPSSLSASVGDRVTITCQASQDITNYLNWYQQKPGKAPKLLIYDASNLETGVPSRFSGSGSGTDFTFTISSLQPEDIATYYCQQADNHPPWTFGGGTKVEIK | 2.5 |
| Ab21 (antibody, V domains shown) VH: EVQLVESGGGLVQPGGSLRLSCAASGFTFSSFSMDWVRQAPGKGLEWVSYISPDASTIYYADSVKGRFTISRDNAKNSLYLQMNSLRAEDTAVYYCARGVLDYGDMLDPWGQGTLVTVSS VL: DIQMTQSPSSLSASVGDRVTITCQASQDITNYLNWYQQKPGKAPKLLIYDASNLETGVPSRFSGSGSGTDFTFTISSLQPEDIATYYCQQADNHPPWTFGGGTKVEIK | 2.61 |
| Ab29 (antibody, V domains shown) VH: EVQLVESGGGLVQPGRSLRLSCAASGFTFSSFAMNWVRQAPGKGLEWVSYISPDASTIYYAGSVKGRFTISRDNAKNSLYLQMNSLRAEDTAVYYCVRAVLDYGDMLDPWGQGTLVTVSS VL: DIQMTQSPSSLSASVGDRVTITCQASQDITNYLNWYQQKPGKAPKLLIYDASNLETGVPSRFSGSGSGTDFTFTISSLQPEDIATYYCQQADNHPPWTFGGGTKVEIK | 1.97 |
